test system: NCI-H23 lung; experiment: NCI-60 one-dose screen, 48 h (100 = growth as untreated, 0 = no growth, -100 = all killed); settings: 10 µM
Compounds without any hit were thinned out: in the full panel of roughly 83,000, 20% have a hit.
growth listing for selected compounds.
VALUE KIND: growth (%)

[[record]]
compound = "S=C1CCCCCN1"
value_kind = "growth"
assay_result = 105

[[record]]
compound = "O=C(c1ccc(Cl)cc1)c1ccccc1Cl"
value_kind = "growth"
assay_result = 91.2

[[record]]
compound = "COc1ccc2c(NCCCCCCCCNc3c4ccccc4nc4cc(OC)ccc34)c3ccccc3nc2c1"
value_kind = "growth"
assay_result = -92.2

[[record]]
compound = "COC(=O)c1ccccc1N(C)C"
value_kind = "growth"
assay_result = 97.7

[[record]]
compound = "CCOC(=O)c1[nH]c(C)c(C(=O)O)c1C"
value_kind = "growth"
assay_result = 109

[[record]]
compound = "CCCC1(c2ccccc2)NC(=O)NC1=O (stereo not drawn)"
value_kind = "growth"
assay_result = 110

[[record]]
compound = "Cc1cc2nc(CC(=O)c3ccccc3)c(=O)[nH]c2cc1C"
value_kind = "growth"
assay_result = 84

[[record]]
compound = "COc1ccc(C(O)c2ccccc2)cc1 (stereo not drawn)"
value_kind = "growth"
assay_result = 97.6

[[record]]
compound = "CCN(CC)CCNc1ccc(CO)c2sc3ccccc3c(=O)c12"
value_kind = "growth"
assay_result = 44.9

[[record]]
compound = "O=C(O)CCC(NC(=O)OCc1ccccc1)C(=O)O (stereo not drawn)"
value_kind = "growth"
assay_result = 101

[[record]]
compound = "c1c(-c2cc(C3CC3)[nH]n2)n[nH]c1C1CC1"
value_kind = "growth"
assay_result = 94.3

[[record]]
compound = "COC(=O)CCCCC1=CCC2C(=O)C=C(O)C2C1 (stereo not drawn)"
value_kind = "growth"
assay_result = 100

[[record]]
compound = "Cc1ccc(C)n1-c1ccsc1C(=O)NNC(=O)CCl"
value_kind = "growth"
assay_result = 85.1


---

test system: SF-268 CNS; experiment: NCI-60 one-dose screen, 48 h (100 = growth as untreated, 0 = no growth, -100 = all killed); conditions: 10 µM
The panel holds about 83,000 compounds, 20% with a hit somewhere; the sample as a whole holds those more often.
VALUE KIND: growth (%)

[[record]]
molecule = "OCc1cccc2ccccc12"
value_kind = "growth"
assay_result = 107

[[record]]
molecule = "O=C(Cc1ccc(OCc2ccccc2)cc1)NCc1ccc2c(c1)OCO2"
value_kind = "growth"
assay_result = 68.9

[[record]]
molecule = "COc1cc2cc(c1Cl)N(C)C(=O)C[C@H](OC(=O)[C@H](C)N(C)C(C)=O)[C@]1(C)O[C@H]1[C@H](C)[C@@H]1C[C@@](O)(NC(=O)O1)[C@H](OC)C=C/C=C(\\C)C2"
value_kind = "growth"
assay_result = 23.5

[[record]]
molecule = "Cc1ccc(CCCC(=O)O)c(C)c1"
value_kind = "growth"
assay_result = 104

[[record]]
molecule = "Cc1cc2nc(CC(=O)c3ccccc3)c(=O)[nH]c2cc1C"
value_kind = "growth"
assay_result = 108

[[record]]
molecule = "CCOC(=O)C1OC1c1ccccc1 (stereo not drawn)"
value_kind = "growth"
assay_result = 97.5

[[record]]
molecule = "CC1(O)OC(COc2ccc(Cl)cc2)COC1O (stereo not drawn)"
value_kind = "growth"
assay_result = 104

[[record]]
molecule = "Cc1ccccc1C1N=C2Oc3ccccc3C=C2C(=O)N1 (stereo not drawn)"
value_kind = "growth"
assay_result = 53.7

[[record]]
molecule = "CCOc1ccc2[nH]c(=S)sc2c1"
value_kind = "growth"
assay_result = 103

[[record]]
molecule = "Cc1ccc(N)cc1[N+](=O)[O-]"
value_kind = "growth"
assay_result = 114

[[record]]
molecule = "N#CCCN(CCCN1CCOCC1)CN1C(=O)c2ccccc2C1=O"
value_kind = "growth"
assay_result = 115

[[record]]
molecule = "C=CC(O)CCC (stereo not drawn)"
value_kind = "growth"
assay_result = 107

[[record]]
molecule = "NC(=S)N/N=C/c1ccc(N)cc1"
value_kind = "growth"
assay_result = 97.1

